# ASSAY OVERVIEW: Permeability of the compound at pH 6.5 measured after 2 hrs by PAMPA
# Type: ADME
# MEASUREMENT PARAMETERS: read-out: permeability
PROPERTY NAME: Papp at 2 h (×10⁻⁶ cm/s)

(A) CCc1nc(C(N)=O)c(Nc2ccc(N3CCC(N4CCN(C)CC4)CC3)c(OC)c2)nc1N[C@H]1CC[C@H](OC)CC1
(B) CCc1nc(C(N)=O)c(Nc2ccc(N3CCC(N4CCN(C)CC4)CC3)c(OC)c2)nc1N[C@H]1CC[C@H](O)CC1
Of the two listed items, which has the higher Papp at 2 h? First: A Second: B Respond using the label that marks the chosen record.
A
(A: 21 ×10⁻⁶ cm/s, B: 1.1 ×10⁻⁶ cm/s)
